- system.tested: Carbonic anhydrase 9 (Homo sapiens)
- experiment.summary: Inhibition of recombinant human carbonic anhydrase 9 by stopped-flow CO2 hydration assay
Answer each item with its documented pKi.
Give bare numbers, as −log10 of the molar value.

Use the examples below as a reference point.
CCOC(=O)c1cnc2c(NC(=O)N/C=C/c3ccc(S(N)(=O)=O)cc3)cnn2c1C
6.07
CCOC(=O)c1cnc2c(NC(=O)NCc3ccc(S(N)(=O)=O)cc3)cnn2c1C
8.01
CCOC(=O)c1cnc2c(NC(=S)NCCc3ccc(S(N)(=O)=O)cc3)cnn2c1C
6.04
CCOC(=O)c1cnc2c(NC(=O)c3ccc(S(N)(=O)=O)cc3)cnn2c1C
6.85
CCOC(=O)c1cnc2c(NC(=O)c3ccc(Cl)c(S(N)(=O)=O)c3)cnn2c1C
8.19
CCOC(=O)c1cnc2c(NC(=S)Nc3cccc(S(N)(=O)=O)c3)cnn2c1C
6.51

Please state pKi for every molecule in the list that follows.
1. CCOC(=O)c1cnc2c(NC(=S)NCc3ccc(S(N)(=O)=O)cc3)cnn2c1C
2. Cc1c(C(=O)O)cnc2c(NC(=O)c3ccc(S(N)(=O)=O)cc3)cnn12

Reply:
[7.64, 6.85]

Please state pKi for every molecule in the list that follows.
1. CCOC(=O)c1cnc2c(NC(=S)Nc3ccc(S(N)(=O)=O)cc3)cnn2c1C
2. Cc1c(C(=O)O)cnc2c(NC(=O)Nc3cccc(S(N)(=O)=O)c3)cnn12

Reply:
1: 6.17; 2: 6.28
